Reference for the values: PubChem BioAssay (NCI)

# Tested on: OVCAR-3 ovarian
# Protocol Text: NCI-60 one-dose screen, 48 h (100 = growth as untreated, 0 = no growth, -100 = all killed)
# Condition Details: 10 µM unless noted
About 83,000 compounds went through this panel and 20% of them were active in at least one assay; those are over-represented in the sample as a whole.
Entries and their growth
A number alone suffices; assume %.

Recorded growth, per entry:
[[record]]
compound = "O=c1c2cc(Br)cc(Br)c2nc(-c2ccc(Cl)cc2)n1/N=C/c1cccc(F)c1"
measurement_name = "growth"
result = 49.8

[[record]]
compound = "COc1cc2ncnc(Nc3ccc(S(=O)(=O)Nc4nccs4)cc3)c2cc1OCCCN1CCOCC1"
measurement_name = "growth"
result = 101

[[record]]
compound = "COc1ccc(/C(C)=N/NC(=O)CSc2nc3ccccc3c(=O)n2CCc2ccc(S(N)(=O)=O)cc2)cc1"
measurement_name = "growth"
result = 16.6

[[record]]
compound = "N=C(N)c1ccc(-c2ccc(-c3cccs3)s2)cc1F"
measurement_name = "growth"
result = -77.2

[[record]]
compound = "CC(=O)O[C@H]1CC[C@]2(C)[C@H]3CC=C4[C@@H]5CC(C)(C)CC[C@]5(C(=O)OCC(COC(=O)C(Cl)Cl)(COC(=O)C(Cl)Cl)NC(=O)C(Cl)Cl)CC[C@@]4(C)[C@]3(C)CC[C@H]2C1(C)C"
measurement_name = "growth"
result = 67

[[record]]
compound = "CCN(CC)c1ccc2c(cc1=O)[C@@H](NC(C)=O)CCc1cc(OC)c(OC)c(OC)c1-2"
measurement_name = "growth"
result = -24.9

[[record]]
compound = "Cc1c(C(=O)Nc2ccccc2F)sc2c(=O)[nH]cnc12"
measurement_name = "growth"
result = 93.7

[[record]]
compound = "O=C(N/N=C/c1ccc([N+](=O)[O-])o1)c1ccc(O)cc1"
measurement_name = "growth"
result = 23.4

[[record]]
compound = "S=C(Cc1ccccc1)N1CCN(c2ccccc2Cl)CC1"
measurement_name = "growth"
result = 106

[[record]]
compound = "CN1C2CCC1/C(=C\\c1ccc(Cl)cc1)C(=O)/C2=C/c1ccc(Cl)cc1"
measurement_name = "growth"
result = 46


Request: For the record Brc1ccsc1Br , what value of growth is listed for OVCAR-3 ovarian?
Response: 122

Request: Quick one: CN(C)c1nc(-c2cccs2)n2nc(-c3ccc(Cl)cc3)cc2n1
Response: 14.8

Request: Same for O=C1Nc2ccccc2/C1=C\c1nc(C2CCN(S(=O)(=O)c3ccc(F)cc3)CC2)n2ccccc12
Response: 58.6
